biological target: T1, recombinant human VEGF165 (PeproTech EC Ltd.) (human, UniProt P15692-4 27-191); assay: SPR BIAcore T100, hVEGF165 amine-coupled on CM4 chip, scFv as analyte
T1 construct: Amine-coupled to a CM4 sensor chip; also called hVEGF165
T1 sequence (P15692 other isoform, or with tags, fused parts or gaps limits assumed): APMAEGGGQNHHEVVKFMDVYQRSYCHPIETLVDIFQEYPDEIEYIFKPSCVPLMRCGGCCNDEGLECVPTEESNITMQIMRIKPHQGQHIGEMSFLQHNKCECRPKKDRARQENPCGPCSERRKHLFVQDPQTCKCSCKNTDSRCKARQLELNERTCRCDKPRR
In this section we review reported kon values for a set of binders.

Check out these entries, answers already filled in.
Just so you know, measured kon for 567-max (scFv) EIVMTQSPSTLSASVGDRVIITCQADQSIYIWLSWYQQKPGKAPKLLIYKASTLESGVPSRFSGSGSGTQFTLTISSLQPDDFATYYCQNNAHYSTNGGTFGQGTKLTVLGGGGGSGGGGSGGGGSGGGGSEVQLVESGGGLVQPGGSLRLSCSVSGFSLSDYYMCWVRQAPGKGLEWVGCLDYFGSTDDASWAKGRFTISKDTSKNTVYLQMNSLRAEDTAVYYCARTDDSRGWGLNIWGQGTLVTVSS came out at 1.2e+06 M⁻¹ s⁻¹

Just so you know, measured kon for 567-min (scFv) EIVMTQSPSTLSASVGDRVIITCQADQSIYIWLSWYQQKPGKAPKLLIYKASTLESGVPSRFSGSGSGAEFTLTISSLQPDDFATYYCQNNAHYSTNGGTFGQGTKLTVLGGGGGSGGGGSGGGGSGGGGSEVQLVESGGGLVQPGGSLRLSCAASGFSLSDYYMCWVRQAPGKGLEWVSCLDYFGSTDDASWAKGRFTISRDNSKNTLYLQMNSLRAEDTAVYYCAKTDDSRGWGLNIWGQGTLVTVSS came out at 2.01e+06 M⁻¹ s⁻¹

Next binder, kon to be filled in.
Just so you know, measured kon for 511-min (scFv, V domains shown) VH: EVQLVESGGGLVQPGGSLRLSCAASGFSLNTYYMNWVRQAPGKGLEWVSIIAPDDTTYYASWAKSRFTISRDNSKNTLYLQMNSLRAEDTAVYYCAKSGDTTAWGADIWGQGTLVTVSS VL: EIVMTQSPSTLSASVGDRVIITCQASQSINIWCSWYQQKPGKAPKLLIYRASTLASGVPSRFSGSGSGAEFTLTISSLQPDDFATYYCQANYAYSAGYGAAFGQGTKLTVL came out at 505000 M⁻¹ s⁻¹
